System: HMLE_sh_eGFP viability, CellTiter-Glo luminescence, 72 h
method summary: cytotoxicity in HMLE control line with eGFP shRNA, dose response, counter-screen for HMLE_sh_ECad selective toxicity project, cell-based, HMLE_sh_eGFP, luminescence (AID 463074);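 further: counterscreen control line to flag general toxicity for the HMLE_sh_ECad screen; potency for loss of viability as luminescence drops below DMSO wells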
Calls of active or inactive are those of the source.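 How the source made its calls: active means AC50 no more than tenfold above the top dose tested, or full inhibition at every dose with a flat fit (cut at about 19 µM in these data); inconclusive means flat curve fit with inhibition between 30% and 70%, or poor fit; inactive means AC50 more than tenfold above the top dose tested.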
metric name: AC50

Worked set:
COC(=O)c1c(-c2ccc(N(C)C)cc2)sc2ccc(OC)cc12 : > 19.5 µM (inactive)
CNC(=S)N/N=C/c1cn(Cc2ccc(C)cc2)c2ccccc12 : 5.94 µM
CCCCCCc1cc2cc(S(=O)(=O)c3ccc(C)cc3)c(=O)oc2cc1O : 2.43 µM
Cc1ccc(NC(=O)C(=Cc2ccc(C(=O)O)cc2)C(=O)Nc2ccc(C)cc2C)c(C)c1 : 3.16 µM
CCOc1cc2c(cc1OCC)-n1cccc1C(c1ccc(C(C)C)cc1)NC2 (stereo unspecified) : 6.13 µM

As a next step, examine the compound that follows.
Recorded AC50 (compound Cc1nnc2sc(SCc3cccc(Cl)c3)nn2c1=O ): > 19.5 µM (inactive)
